tested on: HepG2; test: Cytotoxicity against human HepG2 cells after 72 hrs by MTT assay; type: functional, cell-based; conditions: HepG2, 72 h
pIC50: −log10 of the molar value.
# pIC50 values compiled below

molecule	pIC50
CNC(=O)c1cc(Oc2ccc(NC(=O)Nc3ccc(Cl)c(C(F)(F)F)c3)cc2)ccn1 [SORAFENIB]	4.90
CC1(C)C(=O)Nc2cc3nccc(Oc4ccc(NC(=O)Nc5ccc(F)c(C(F)(F)F)c5)cc4Cl)c3cc21	5.20
Cc1cc(NC(=O)Nc2ccc(Oc3ccnc4cc5c(cc34)C(C)(C)C(=O)N5)c(F)c2)no1	4.92
Cc1cc(NC(=O)Nc2ccc(Oc3ccnc4cc5c(cc34)C(C)(C)C(=O)N5)c(Cl)c2)no1	5.07
CC1(C)C(=O)Nc2cc3nccc(Oc4ccc(NC(=O)Nc5cccc(F)c5)cc4)c3cc21	4.92
Cc1cccc(C)c1NC(=O)Nc1ccc(Oc2ccnc3cc4c(cc23)C(C)(C)C(=O)N4)c(F)c1	4.99
Cc1cc(NC(=O)Nc2ccc(Oc3ccnc4cc5c(cc34)C(C)(C)C(=O)N5)cc2)no1	4.50
CC1(C)C(=O)Nc2cc3nccc(Oc4ccc(NC(=O)Nc5ccc(F)c(C(F)(F)F)c5)cc4F)c3cc21	5.09

// data source = ChEMBL document CHEMBL3217507
